Source of measurements: PubChem BioAssay (NCI)

Recorded TGI by entry
# Tested on: OVCAR-4 ovarian
# MEASUREMENT_NOTES: NCI tumour cell line growth inhibition, 48 h
MEASURED_QUANTITY: TGI

1) COc1ccc(-c2c(C3=NCCN3)nnn2-c2ccccc2)cc1 : > 100 µM
2) CC1(C)[C@@H]2C[C@H]1c1cnc(-c3ccccn3)cc1C2[C@@H]1c2cc(-c3ccccn3)ncc2[C@@H]2C[C@H]1C2(C)C (some centres undefined) : 85.3 µM
3) COc1cc(OC2OC(C)C(O)C(O)C2O)cc2oc(-c3ccc(O)cc3)c(CC=C(C)C)c(=O)c12 (centres undefined) : 18.9 µM
4) CN1C2CC(=O)CC1[C@@H]1OC(c3ccccc3)O[C@H]21 (some centres undefined) : > 100 µM
5) COC(=O)C1(C(=O)OC)N=C(C)OC1C(C)C (centres undefined) : > 100 µM
6) CCOC(=O)[C@@H](C)C[C@H](Cc1ccccc1)NC(=O)c1csc([C@@H](C[C@H](C(C)C)N(C)C(=O)[C@@H](NC(=O)[C@H]2C[C@H](O[Si](C)(C)C(C)(C)C)CCN2C)C(C)C)OC(C)=O)n1 : > 8.33 µM
7) CC(C)(C)N1Cc2ccccc2/C(=C/Sc2ccccc2)C1=O : 19.6 µM
8) CCN(CC)CCCCC1CCN(CC(=O)N2CC(C)C(=O)Nc3ccccc32)CC1 (centres undefined) : > 100 µM
9) CC(C)=CC(C(O)c1ccccc1)S(=O)(=O)c1nccn1C (centres undefined) : > 100 µM

----------
# Test system: TK-10 renal
# MEASUREMENT_NOTES: NCI tumour cell line growth inhibition, 48 h
MEASURED_QUANTITY: TGI (µM)

1. C=CCn1c(C)nc2cc(Nc3nc(Nc4ccc5nc(C)n(CC=C)c5c4)c4ccccc4n3)ccc21 : 2.1
2. COc1ccc(NC(=O)C2C(=O)N(c3ccc(OC)cc3)C(=O)/C2=N/O)cc1 (stereo not given) : 52.3

----------
# Test system: SW-620 colon
# MEASUREMENT_NOTES: NCI tumour cell line growth inhibition, 48 h
MEASURED_QUANTITY: TGI

1) O=C(c1ccco1)N(C(=S)OCc1ccccn1)c1ccccc1 : > 100 µM
2) C=CCNC(=S)N1CC(C)C(=O)Nc2ccccc21 (stereo unspecified) : > 100 µM
3) CSC1SCC2C(=O)N(C)C3(CC3C)C(=O)OCC(NC(=O)c3nc4ccccc4cc3O)C(=O)NC(C)C(=O)N(C)C1C(=O)N(C)C1(CC1C)C(=O)OCC(NC(=O)c1nc3ccccc3cc1O)C(=O)NC(C)C(=O)N2C (stereo unspecified) : > 100 µM
4) N#CC1=CNc2sccc2S1(=O)=O : > 100 µM
5) CC(=O)O/N=C/c1ncccc1CO : > 100 µM
6) COc1ccc2c(c1)CCc1c-2n(CCN(C)C)c2ccc(OC)cc12 : 74.5 µM

----------
# Test system: SR leukemia
# MEASUREMENT_NOTES: NCI tumour cell line growth inhibition, 48 h; in the data active = GI50 below about 0.43 µM; inactive = the rest
Classes used: class 1 = active, class 0 = inactive

1. CC(=O)Oc1cc(C)ccc1[C@]1(C)CC[C@H](C)/C1=C\Br : class 0
2. COc1cc(OC)c(/C=C/c2ccc3ccccc3[n+]2C)c(OC)c1 : class 1
3. COc1cc([C@H](C)c2ccc3ccccc3c2)cc(OC)c1OC : class 1
4. COc1cc2nc(-c3ccc(C(F)(F)F)cc3)cc(OCCCN3CCOCC3)c2cc1OC : class 1
5. COc1cc2c(cc1C)NC(=O)/C2=C\c1cc(OC)c(OC)c(OC)c1 : class 0
6. S=C(Nc1ccc(-c2nc3ccccc3[nH]2)cc1)NC1CCCCC1 : class 0
